Experiment: Liver microsome stability, rat
Format: in vitro ADME, Sprague Dawley rat
Conditions: after 30 min
Mark yes (1) only for rat liver microsome (RLM), % parent remaining values smaller than 30 % parent remaining; exact matches and larger values are no (0).

Ask | Quick check: does CC1CCCN1CCCc1nn(C)c2nc(N3CCCCCCC3)ccc12 (stereo not shown) have rat liver microsome (RLM), % parent remaining under 30 % parent remaining?
Reply | yes (1)

Ask | Quick check: does Cn1nc(C(=O)NC2CCN(CCN3CCCCC3CO)CC2)c2ccc(N3CCCCCC3)nc21 (stereo not shown) have rat liver microsome (RLM), % parent remaining under 30 % parent remaining?
Reply | no (0)

Ask | Quick check: does Cn1nc(C(=O)NC2CCN(CCN3CCCC3)CC2)c2ccc(N3CCCCCC3)nc21 [EBP1597] have rat liver microsome (RLM), % parent remaining under 30 % parent remaining?
Reply | yes (1)

Ask | Quick check: does Cn1nc(CCCN2CCCCC2CO)c2ccc(N3CCCCCCC3)nc21 (stereo not shown) have rat liver microsome (RLM), % parent remaining under 30 % parent remaining?
Reply | yes (1)

Ask | Quick check: does Cn1nc(C(=O)NC2CCN(CC(F)F)CC2)c2ccc(N3CCCCCC3)nc21 have rat liver microsome (RLM), % parent remaining under 30 % parent remaining?
Reply | yes (1)

Ask | Quick check: does Cn1nc(CCCN2CCCC2)c2ccc(N3CCCCCCC3)nc21 have rat liver microsome (RLM), % parent remaining under 30 % parent remaining?
Reply | yes (1)

Ask | Quick check: does CCN1CCC(NC(=O)c2nn(C)c3nc(N4CCCCCC4)ccc23)CC1 [EBP1595] have rat liver microsome (RLM), % parent remaining under 30 % parent remaining?
Reply | no (0)

Ask | Quick check: does Cn1nc(C(=O)NC2CCN(CCN3CCCCC3)CC2)c2ccc(N3CCCCCC3)nc21 [EBP1047] have rat liver microsome (RLM), % parent remaining under 30 % parent remaining?
Reply | yes (1)

Ask | Quick check: does Cn1nc(C(=O)NC2CCNCC2)c2ccc(N3CCCCCC3)nc21.O=C(O)C(F)(F)F.O=C(O)C(F)(F)F have rat liver microsome (RLM), % parent remaining under 30 % parent remaining?
Reply | no (0)

Ask | Quick check: does CC1CCCCN1CCOCc1nn(C)c2nc(N3CCCCCC3)ccc12 (stereo not shown) have rat liver microsome (RLM), % parent remaining under 30 % parent remaining?
Reply | no (0)

Ask | Quick check: does CC(C)N1CCC(NC(=O)c2nn(C)c3nc(N4CCCCCC4)ccc23)CC1 have rat liver microsome (RLM), % parent remaining under 30 % parent remaining?
Reply | no (0)

Ask | Quick check: does CCN1CCC(NC(=O)c2nn(C)c3nc(N4CCCCCC4)ccc23)CC1 [compound 1595] have rat liver microsome (RLM), % parent remaining under 30 % parent remaining?
Reply | no (0)

Ask | Quick check: does Cn1nc(C(=O)NC2CCN(CCN3CCCC3)CC2)c2ccc(N3CCCCCC3)nc21 [compound 1597] have rat liver microsome (RLM), % parent remaining under 30 % parent remaining?
Reply | yes (1)

Ask | Quick check: does Cn1nc(C(=O)NC2CCN(CCN3CCCCC3)CC2)c2ccc(N3CCCCCC3)nc21 [compound 1047] have rat liver microsome (RLM), % parent remaining under 30 % parent remaining?
Reply | yes (1)

Ask | Quick check: does CCC(CC)Oc1ccc2c(C(=O)NC3CCNCC3)n[nH]c2n1 have rat liver microsome (RLM), % parent remaining under 30 % parent remaining?
Reply | no (0)

Ask | Quick check: does CC1CCC(C)N1CCOCc1nn(C)c2nc(N3CCCCCC3)ccc12 (stereo not shown) have rat liver microsome (RLM), % parent remaining under 30 % parent remaining?
Reply | yes (1)

----------
Kindly state log10 of EC50 for each of the entries shown.
Tested on: HCV genotype 1b
Assay: HCV 1b replicon luciferase assay
Type: cell-based
Details: Hepatitis C virus, Huh-7, 48 h, Table 1; Huh7 HCV 1b replicon, luciferase reporter, 48 hours; read-out: 1b EC50
Scale: decimal log of EC50, EC50 in nM.

Ask | Specify log10 of EC50 for O=C(NC1CCNCC1)c1nn(Cc2ccccc2Cl)c2nc(N3CCCCCC3)ccc12 and stop.
Reply | 3.46

Ask | Specify log10 of EC50 for CCC(CC)Oc1ccc2c(COCC3CCNCC3)nn(Cc3ccc(Cl)cc3)c2n1 and stop.
Reply | 3.34

Ask | Specify log10 of EC50 for CC1CC(NCc2nn(C)c3nc(N4CCCCCC4)ccc23)CCN1 (stereo not shown) and stop.
Reply | 3.60

Ask | Specify log10 of EC50 for Cn1nc(NC(=O)c2cccnc2Cl)c2ccc(N3CCCCCC3)nc21 and stop.
Reply | 3.52

Ask | Specify log10 of EC50 for Cn1nc(NC(=O)c2cccnc2)c2ccc(N3CCCCCC3)nc21 and stop.
Reply | 3.58

Ask | Specify log10 of EC50 for Cn1nc(C(=O)N2CCC(N)CC2)c2ccc(N3CCCCCC3)nc21 and stop.
Reply | 3.94

Ask | Specify log10 of EC50 for Cn1nc(C(=O)NC2CCN(CCN3CCCC3)CC2)c2ccc(NC3CCCCCCC3)nc21 and stop.
Reply | 2.40

Ask | Specify log10 of EC50 for C=CCCCCn1nc(C(=O)NC2CCN(CC=C)CC2)c2ccc(N3CCCCCC3)nc21 and stop.
Reply | 3.88

Ask | Specify log10 of EC50 for Cn1nc(C(=O)NC2CCNCC2)c2ccc(N3CCCN(Cc4ccccc4)CC3)nc21 and stop.
Reply | 3.79

Ask | Specify log10 of EC50 for CCCCCCNc1ccc2c(C(=O)NC3CCCNC3)nn(-c3cccc(Cl)c3C)c2n1 (stereo not shown) and stop.
Reply | 3.41

Ask | Specify log10 of EC50 for Cn1nc(C(=O)NC2CCNCC2)c2ccc(OC3CCCCCC3)nc21 and stop.
Reply | 3.67

Ask | Specify log10 of EC50 for CC1CCC(Oc2ccc3c(C(=O)NC4CCNCC4)nn(C)c3n2)C1 (stereo not shown) and stop.
Reply | 3.57

Ask | Specify log10 of EC50 for Cn1nc(C(=O)NC2CCNCC2)c2ccc(OCc3ccccc3-c3ccccc3)nc21 and stop.
Reply | 3.11

Ask | Specify log10 of EC50 for O=C(NC1CCNC1)c1nnc2n(Cc3ccc(Cl)cc3)c(N3CCCCCC3)ccc1-2 (stereo not shown) and stop.
Reply | 3.91

Ask | Specify log10 of EC50 for CCCN1CCC(NC(=O)c2nn(C)c3nc(NC4CCCCCCC4)ccc23)CC1 and stop.
Reply | 2.92

Ask | Specify log10 of EC50 for Cn1nc(C(=O)NC2CCNCC2)c2ccc(OC3CCCCC3)nc21 and stop.
Reply | 3.53

Ask | Specify log10 of EC50 for CC(C)CNc1ccc2c(C(=O)NC3CCCNC3)nn(C)c2n1 (stereo not shown) and stop.
Reply | 4.00

Ask | Specify log10 of EC50 for Cn1nc(C(=O)NC2CCNCC2)c2ccc(N3CCC(Cc4ccccc4)CC3)nc21 and stop.
Reply | 3.38

Ask | Specify log10 of EC50 for Cn1nc(C(=O)NC2CCN(CC3CCOCC3)CC2)c2ccc(N3CCCCCC3)nc21 and stop.
Reply | 3.40

Ask | Specify log10 of EC50 for Cn1nc(C(=O)NC2CCN(CC3CCCC3)CC2)c2ccc(N3CCCCCCC3)nc21 and stop.
Reply | 2.69

Ask | Specify log10 of EC50 for Cn1nc(C(=O)NC2CCN(CCN3CCCC3)CC2)c2ccc(N3CCCCCCC3)nc21 and stop.
Reply | 2.70

Ask | Specify log10 of EC50 for Cn1nc(C(=O)NC2CCN(CC(F)F)CC2)c2ccc(NC3CCCCCCC3)nc21 and stop.
Reply | 3.15

Ask | Specify log10 of EC50 for Cc1ccc(C(=O)Nc2nn(C)c3nc(N4CCCCCC4)ccc23)s1 and stop.
Reply | 3.20

Ask | Specify log10 of EC50 for CCN1CCC(NC(=O)c2nn(C)c3nc(N4CCCCCC4)ccc23)CC1 and stop.
Reply | 2.87

Ask | Specify log10 of EC50 for CC(C)CN(C)c1ccc2c(C(=O)NC3CCNCC3)nn(C)c2n1 and stop.
Reply | 3.08

Ask | Specify log10 of EC50 for Cn1nc(-c2cnc(C(=O)NC3CCCCC3)s2)c2ccc(N3CCCCCCC3)nc21 and stop.
Reply | 3.15

Ask | Specify log10 of EC50 for CC(C)Cn1nc(C(=O)NC2CCN(CCN3CCCCC3)CC2)c2ccc(N3CCCCCC3)nc21 and stop.
Reply | 2.92

Ask | Specify log10 of EC50 for CC1CC(NC(=O)c2n[nH]c3nc(N4CCCCCC4)ccc23)CCN1 (stereo not shown) and stop.
Reply | 3.41

Ask | Specify log10 of EC50 for CC(C)CN(C)c1ccc2c(C(=O)NC3CCN(CC4CCCCC4)CC3)nn(C)c2n1 and stop.
Reply | 2.88

Ask | Specify log10 of EC50 for CCC(CC)Oc1ccc2c(NC(=O)CC3CCCNC3)nn(C)c2n1 (stereo not shown) and stop.
Reply | 4.00

Ask | Specify log10 of EC50 for CC1CCC(C)N1CCOCc1nn(C)c2nc(N3CCCCCC3)ccc12 (stereo not shown) and stop.
Reply | 3.43

Ask | Specify log10 of EC50 for Cn1nc(C(=O)NC2CCN(CC3CC3)CC2)c2ccc(N3CCCCCCC3)nc21 and stop.
Reply | 3.51

Ask | Specify log10 of EC50 for Cn1nc(-c2cnc(C(=O)NCC3CCCN(CC(F)F)C3)s2)c2ccc(N3CCCCCCC3)nc21 (stereo not shown) and stop.
Reply | 3.26

Source: patent US20120232062A1
